Listing of entries alongside the reported Inhibition.
- Tested on: HepG2
- ASSAY_REMARKS: GSK_TCMDC: Percent inhibition of human HepG2 cell line. Test compounds present at 10uM.
- Type: functional
Enter your answer as a number in %; do not include the unit.

Solved entries (count: 5):
CN1CCCC1CNS(=O)(=O)c1ccc(C(=O)NCC2CC2)cc1.O=C(O)C(F)(F)F (stereo unspecified) :: 17
Cl.N=C(Cc1ccc(Cl)cc1)NCCN1CCCCCC1 :: 0
O=C(NC1CCCCN(Cc2ccccc2O)C1)c1cc(F)cc(F)c1.O=C(O)C(F)(F)F (stereo unspecified) :: 7
Cc1[nH]c(C)c(-c2ccc(-c3ccc(OC(F)(F)F)cc3)cc2)c(=O)c1Cl :: 24
O=C(Nc1ccc(Oc2ccccc2)cc1)N(Cc1ccc(-c2cccc(CN3CCNCC3)c2)cc1)C1CCN(Cc2ccccc2)CC1.O=C(O)C(F)(F)F :: 10

Lookup: // fetch Inhibition given entry COc1cccc(C(=O)Nc2ccc(Nc3nc(C)cc(N4CCCCC4)n3)cc2)c1OC
Found: 47

Lookup: State its Inhibition for this molecule: Cc1cc(N[C@@H](CC(C)C)C(=O)NCCOc2ccccc2)nc(NCC2CCCCC2)n1.O=C(O)C(F)(F)F
Found: 24

Lookup: Provide Inhibition value for the following molecule: NCc1ccc(CNCc2ccc(-c3ccc(-c4nc5cc(F)ccc5[nH]4)cc3)cc2)cc1.O=C(O)C(F)(F)F
Found: 12

Lookup: Return the recorded Inhibition value; entry: COc1ccc(CN2CCC(CNCCc3ccccc3Oc3ccccc3)CC2)cc1.O=C(O)C(F)(F)F
Found: 99

Lookup: Identify Inhibition associated with the molecule Cc1cc2nc(N=C3NC4(c5ccccn5)NC(=Nc5nc6cc(C)c(C)cc6[nH]5)NC4(c4ccccn4)N3)[nH]c2cc1C.O=C(O)C(F)(F)F (stereo unspecified)
Found: 3

Lookup: Specify Inhibition for O=C(NCCCCCN1CCC(c2c[nH]c3ccccc23)CC1)Nc1ccc(Br)cc1 and stop.
Found: 24

====

The entries below come with measured Inhibition values attached.
- Test system: Plasmodium falciparum
- ASSAY_REMARKS: GSK_TCMDC: Inhibition of Plasmodium falciparum 3D7 in whole red blood cells, using parasite LDH activity as an index of growth. Test compounds present at 2uM
- Assay type: functional
Could you give me the number in %? Just the number is fine.

Solved cases below.
CCOC(=O)c1cn(CC)c2cc(F)c(OC3CC4CCC3(C)C4(C)C)cc2c1=O (centres undefined) :: 91
CS(=O)(=O)N1CC2(CCN(CCC(NC(=O)/C=C/c3ccccc3)c3ccc(Cl)c(Cl)c3)CC2)c2ccccc21 (centres undefined) :: 97
CC(C)C[C@H](NC(=O)c1cccc(F)c1)C(=O)N[C@H](/C=N/NC(=O)c1ccccc1)CCc1ccccc1 :: 93
O=C(Nc1ccc(F)c([N+](=O)[O-])c1)Nc1cc(C(F)(F)F)ccc1Cl :: 100
Br.COc1ccc(OC)c2c1CCN(C)C2Cc1cccc2ccccc12 (centres undefined) :: 91

Lookup: Consider the compound Cl.N#Cc1ccc2c(c1)CCN(CCC1CCC(NC(=O)/C=C/c3cc(Br)cs3)CC1)CC2 (centres undefined) and give its recorded Inhibition.
Found: 93

Lookup: Give a short answer stating reported Inhibition for COc1nc2c(N3CCN(CCNCc4ccc5c(n4)NC(=O)CS5)CC3)ccnc2cc1F .
Found: 100

Lookup: Provide Inhibition value for the following compound: COc1ccccc1CCNc1nc(C)cc(N[C@@H](Cc2ccccc2)C(=O)NCc2cccs2)n1.O=C(O)C(F)(F)F
Found: 100

Lookup: Tell me Inhibition reported for CC(C)NCc1ccc(-c2ccc(NC(=O)c3ccc(Cl)cc3)cc2)cc1.O=C(O)C(F)(F)F
Found: 90

Lookup: Specify Inhibition for Cc1cc(-c2ccc(S(=O)(=O)Nc3cc4c(cc3OC(C)C)CCN(C)CC4)cc2)ccc1Cl.Cl and stop.
Found: 90

Lookup: For the compound Cc1nc(N2CCC(C)CC2)c2c3c(sc2n1)CCCC3 , give its reported Inhibition.
Found: 93

Lookup: Indicate its recorded Inhibition; the compound in question is COc1ccc(CNCc2cccc(-c3ccc(-c4nc5ccccc5[nH]4)s3)c2)cc1.O=C(O)C(F)(F)F
Found: 90

Lookup: Please report the measured Inhibition for CC(C)(C)CC(C)(C)c1ccc(O)c(C(=O)Nc2cccc([N+](=O)[O-])c2)c1
Found: 95

Lookup: Note down Inhibition recorded for CC(C)c1ccc(NC(=O)NCC2CCCN(CCCCCNC(=O)/C=C/c3ccc(Cl)c(Cl)c3)C2)cc1 (centres undefined)
Found: 98

Lookup: Output measured Inhibition for this item: CS(=O)(=O)CCNCc1ccc(-c2ccc3c(Nc4ccc(Oc5ccccn5)cc4)ccnc3c2)o1
Found: 100
